Test: molar heat capacity at constant pressure
Details: 306.65 K; 101.33 kPa; Liquid
endpoint: molar heat capacity at constant pressure (J/K/mol)
One number for each entry, in J/K/mol.

Guide cases for molar heat capacity at constant pressure, answers given:
-- ask So what does the record say about molar heat capacity at constant pressure for CCCCCCBr [1-bromohexane] ?
-- reply 222.22

-- ask Any idea what its molar heat capacity at constant pressure is? The compound is CCCCCCCCCCBr [1-bromodecane]
-- reply 342.74

-- ask Can you look up the measured molar heat capacity at constant pressure of CCCCCCCCCBr [1-bromononane] for me?
-- reply 311.91

-- ask Item under review: CCCCCCCCCl [1-chlorooctane] . Reported molar heat capacity at constant pressure?
-- reply 278.37

-- ask Name the reported molar heat capacity at constant pressure value associated with the compound CCCCCCCl [1-chlorohexane]
-- reply 219.22

-- ask Which value of molar heat capacity at constant pressure has been reported for CCCBr [1-bromopropane] in the records?
-- reply 134.93

-- ask Field request: molar heat capacity at constant pressure | item: CCCCCCl [1-chloropentane]
-- reply 190.32

-- ask Dear colleague, I am looking for the recorded molar heat capacity at constant pressure of the following compound: CCCCl [1-chloropropane]
-- reply 132.94

-- ask Reported molar heat capacity at constant pressure for CCCCCCCCl [1-chloroheptane] : what is it?
-- reply 248.53

-- ask Fill in the blank: the reported molar heat capacity at constant pressure of CCCCBr [1-bromobutane] is ____.
-- reply 164.22

For every record below, what is its molar heat capacity at constant pressure?
1. CCCCCBr [1-bromopentane]
2. CCCCCCCBr [1-bromoheptane]
3. CCCCCl [1-chlorobutane]
4. CCCCCCCCCCCl [1-chlorodecane]

-- reply
193.53
252.33
161.06
338.66

====

Test: molar heat capacity at constant pressure
Details: 324.15 K; 101.33 kPa; Liquid
Labelling: molar heat capacity at constant pressure reported below 200 J/K/mol becomes t; at or above becomes f.

The following molecules have reported results that may help.
-- ask Quick check: molar heat capacity at constant pressure of CCCCCl under 200 J/K/mol?
-- reply t

-- ask Is the reported molar heat capacity at constant pressure for CCCCCCCCCl strictly below 200 J/K/mol?
-- reply f

-- ask molar heat capacity at constant pressure strictly < 200 J/K/mol for this molecule? CCCCCCCCCCBr
-- reply f

-- ask Threshold test, molar heat capacity at constant pressure < 200 J/K/mol: CCCBr
-- reply t

-- ask Is it true that molar heat capacity at constant pressure reported for CCCCBr is less than 200 J/K/mol?
-- reply t

Others:
-- ask Given CCCCCCCl , is recorded molar heat capacity at constant pressure strictly lower than 200 J/K/mol?
-- reply f

-- ask molar heat capacity at constant pressure under 200 J/K/mol? Item: CCCCCCCBr
-- reply f

-- ask State whether 200 J/K/mol exceeds molar heat capacity at constant pressure recorded for CCCCCCCCCCCl .
-- reply f

-- ask molar heat capacity at constant pressure under 200 J/K/mol? Item: CCCCCCCCCBr
-- reply f

-- ask Given CCCCCCCCl , is recorded molar heat capacity at constant pressure strictly lower than 200 J/K/mol?
-- reply f

-- ask Input CCCCCCBr ; condition: molar heat capacity at constant pressure strictly below 200 J/K/mol. Does it hold?
-- reply f
